system: mixed bacteria in salivary sediment; assay: Eh lowering by amino acids or salivary supernatant in the salivary sediment system; settings: 3 mM amino acid, 16.7% salivary sediment, 60 mM phosphate buffer, 37° C., up to 24 hours; Group B (next lowest Eh)
# reported Lowest Eh reached, Group B; entries follow
Numeric only. Scale: millivolts

INSERT INTO measurements (molecule, readout_label, value) VALUES
  ('N[C@@H](CCC(=O)O)C(=O)O [glutamic]', 'Lowest Eh reached, Group B', 30),
  ('N=C(N)NCCC[C@H](N)C(=O)O [arginine]', 'Lowest Eh reached, Group B', 25),
  ('NCCC[C@H](N)C(=O)O [ornithine]', 'Lowest Eh reached, Group B', 55);

Lowest Eh reached, Group B recorded for this molecule, N[C@@H](Cc1ccc(O)cc1)C(=O)O [tyrosine] , is 40

Where do these numbers come from? They come from patent US6929790B2.
